inhibition at 5 mg/kg values for the molecules below.
experimental-target: MAGL (Mus musculus)
Construct: Proteomes (mouse brain membrane fraction or cell lysates); from tissue; host or cells: mouse brain membrane fraction (or cell lysates)
experiment-notes: Mouse brain proteomes from inhibitor treated mice (oral gavage, sacrificed 4 h after administration)
Format: in vivo
settings: read-out: MAGL % inh. 5 mg/kg

Quick note, inhibition at 5 mg/kg for CC(=O)Nc1ccn(C(=O)N2CCC3(CCCN3Cc3cc(OCC(=O)N4CCCC4)cc(C(F)(F)F)c3)CC2)n1 landed at 0 to 25%

Quick note, inhibition at 5 mg/kg for CS(=O)(=O)Nc1ccn(C(=O)N2CCN(Cc3cc(N4CCCC4)cc(C(F)(F)F)c3)CC2)n1 landed at ≥ 75%

Quick note, inhibition at 5 mg/kg for CS(=O)(=O)Nc1ccn(C(=O)N2CCC3(CCCN3Cc3ccc(C(F)(F)F)cc3N3CC4COCC4C3)CC2)n1 (stereo not shown) landed at 25 to 50%

Quick note, inhibition at 5 mg/kg for CC(=O)Nc1ccn(C(=O)N2CCC3(CCCN3Cc3ccc(Cl)cc3N3CCC4(CC3)CCN(S(C)(=O)=O)C4)CC2)n1 landed at 0 to 25%

----------
experimental-target: MAGL (Mus musculus, UniProt O35678)
Construct: Proteomes (mouse brain membrane fraction or cell lysates); from tissue; host or cells: mouse brain membrane fraction (or cell lysates)
Sequence (O35678 whole entry): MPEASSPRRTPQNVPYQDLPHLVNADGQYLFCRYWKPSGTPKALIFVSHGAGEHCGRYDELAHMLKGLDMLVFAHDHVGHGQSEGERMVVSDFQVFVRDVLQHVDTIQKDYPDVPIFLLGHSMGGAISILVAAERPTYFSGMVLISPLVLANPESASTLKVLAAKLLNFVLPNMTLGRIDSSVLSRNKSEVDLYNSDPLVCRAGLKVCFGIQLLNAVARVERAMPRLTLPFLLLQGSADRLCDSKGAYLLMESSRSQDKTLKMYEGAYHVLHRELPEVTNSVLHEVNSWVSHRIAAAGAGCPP
experiment-notes: In vitro competitive activity-based protein profiling (mouse), MAGL gel band
Type: biochemical
settings: read-out: MAGL % inh. 1 μM
reported-metric: inhibition at 1 µM

Quick note, inhibition at 1 µM for CS(=O)(=O)Nc1ccn(C(=O)N2CCN(Cc3ccc(C(F)(F)F)cc3N3CCC3)CC2)n1 landed at ≥ 75%

Quick note, inhibition at 1 µM for CC(=O)Nc1ccn(C(=O)N2CCC3(CCCN3Cc3ccc(C(F)(F)F)cc3N3CCOCC3)CC2)n1 landed at ≥ 75%

----------
experimental-target: MAGL (Mus musculus)
Construct: Proteomes (mouse brain membrane fraction or cell lysates); from tissue; host or cells: mouse brain membrane fraction (or cell lysates)
experiment-notes: In vitro competitive activity-based protein profiling (mouse), MAGL gel band
Type: biochemical
settings: mouse
IC50 values for the compounds below.

compound: CS(=O)(=O)Nc1ccn(C(=O)N2CCN(Cc3cccc(-c4cccnc4)c3)CC2)n1 [Example 120]
experimental-target: MAGL (Mus musculus)
IC50: 100 to 1000 nM
--
compound: CCN1CCN(c2cc(Cl)ccc2CN2CCCC23CCN(C(=O)n2ccc(NC(C)=O)n2)CC3)CC1 [Example 15]
experimental-target: MAGL (Mus musculus)
IC50: 100 to 1000 nM
--
compound: CC(=O)Nc1ccn(C(=O)N2CCC3(CCCN3Cc3ccc(N4CCOCC4)c(Cl)c3)CC2)n1 [Example 99]
experimental-target: MAGL (Mus musculus)
IC50: 100 to 1000 nM
--
compound: CC(=O)Nc1ccn(C(=O)N2CCC3(CCCN3Cc3cc(OC4CCS(=O)(=O)CC4)cc(C(F)(F)F)c3)CC2)n1 [Example 88]
experimental-target: MAGL (Mus musculus)
IC50: ≤ 100 nM
--
compound: CS(=O)(=O)Nc1ccn(C(=O)N2CCN(Cc3ccc(Cl)cc3N3CCCCC3)CC2)n1 [Example 128]
experimental-target: MAGL (Mus musculus)
IC50: ≤ 100 nM
--
compound: CC(=O)Nc1ccn(C(=O)N2CCN(Cc3ccc(C(F)(F)F)cc3N3CCOCC3)CC2)n1 [Example 3]
experimental-target: MAGL (Mus musculus)
IC50: ≤ 100 nM

Quick note, IC50 for CC(=O)Nc1ccn(C(=O)N2CCC3(CCCN3Cc3ccc(Cl)cc3N3CCC4(C3)CN(S(C)(=O)=O)C4)CC2)n1 [Example 38] landed at ≤ 100 nM

Quick note, IC50 for CS(=O)(=O)Nc1ccn(C(=O)N2CCN(Cc3ccc(C(F)(F)F)cc3N3CCCCC3)CC2)n1 [Example 129] landed at ≤ 100 nM

Quick note, IC50 for CC(=O)Nc1ccn(C(=O)N2CCC3(CCCN3Cc3ccc(C(F)(F)F)cc3N3CCN(C(C)=O)CC3)CC2)n1 [Example 22] landed at 100 to 1000 nM

Quick note, IC50 for CC(=O)Nc1ccn(C(=O)N2CCC3(CCCN3Cc3ccc(C(F)(F)F)c(Cl)c3)CC2)n1 [Example 24] landed at ≤ 100 nM

Quick note, IC50 for CC(=O)Nc1ccn(C(=O)N2CCN(Cc3ccc(C(F)(F)F)cc3Oc3nc4ccccc4s3)CC2)n1 [Example 75] landed at ≤ 100 nM

Quick note, IC50 for CC(=O)Nc1ccn(C(=O)N2CCC3(CCCN3Cc3ccc(C(F)(F)F)cc3N3CC4COCC4C3)CC2)n1 (stereo not drawn) [Example 32] landed at ≤ 100 nM
